The reported measurements were obtained from patent US20160297830A1.

Give measured MIC for each item. Keep answers brief.
system: H. influenza Hi47 clinical strain, Ampicillin Resistant; assay: organism not typed; assay type: cell-based; conditions: read-out: MIC Hi47

Name the reported MIC value associated with the compound COC[C@@H]1[C@@H](O)[C@@H]2[C@H]3C=C[C@@H]4C[C@H](O)C(=O)O[C@H]([C@H](O)COC)[C@H](C)/C=C(\C)[C@@]24O[C@H]3[C@@H]1OC(=O)c1ccc[nH]1 [Nargenicin B1, reference compound] > 64 µg/mL

Recorded MIC of COC[C@@H]1[C@@H](O)[C@@H]2[C@H]3C=C[C@@H]4[C@@H](COC)C(=O)OC[C@H](C)/C=C(\C)[C@@]24O[C@H]3[C@@H]1OC(=O)c1ccc[nH]1 , please. > 64 µg/mL

---

Provide the recorded pIC50 for the entries that follow.
target: UniProt Q6GG04; test: biochemical
Sequence (Q6GG04 1-1022): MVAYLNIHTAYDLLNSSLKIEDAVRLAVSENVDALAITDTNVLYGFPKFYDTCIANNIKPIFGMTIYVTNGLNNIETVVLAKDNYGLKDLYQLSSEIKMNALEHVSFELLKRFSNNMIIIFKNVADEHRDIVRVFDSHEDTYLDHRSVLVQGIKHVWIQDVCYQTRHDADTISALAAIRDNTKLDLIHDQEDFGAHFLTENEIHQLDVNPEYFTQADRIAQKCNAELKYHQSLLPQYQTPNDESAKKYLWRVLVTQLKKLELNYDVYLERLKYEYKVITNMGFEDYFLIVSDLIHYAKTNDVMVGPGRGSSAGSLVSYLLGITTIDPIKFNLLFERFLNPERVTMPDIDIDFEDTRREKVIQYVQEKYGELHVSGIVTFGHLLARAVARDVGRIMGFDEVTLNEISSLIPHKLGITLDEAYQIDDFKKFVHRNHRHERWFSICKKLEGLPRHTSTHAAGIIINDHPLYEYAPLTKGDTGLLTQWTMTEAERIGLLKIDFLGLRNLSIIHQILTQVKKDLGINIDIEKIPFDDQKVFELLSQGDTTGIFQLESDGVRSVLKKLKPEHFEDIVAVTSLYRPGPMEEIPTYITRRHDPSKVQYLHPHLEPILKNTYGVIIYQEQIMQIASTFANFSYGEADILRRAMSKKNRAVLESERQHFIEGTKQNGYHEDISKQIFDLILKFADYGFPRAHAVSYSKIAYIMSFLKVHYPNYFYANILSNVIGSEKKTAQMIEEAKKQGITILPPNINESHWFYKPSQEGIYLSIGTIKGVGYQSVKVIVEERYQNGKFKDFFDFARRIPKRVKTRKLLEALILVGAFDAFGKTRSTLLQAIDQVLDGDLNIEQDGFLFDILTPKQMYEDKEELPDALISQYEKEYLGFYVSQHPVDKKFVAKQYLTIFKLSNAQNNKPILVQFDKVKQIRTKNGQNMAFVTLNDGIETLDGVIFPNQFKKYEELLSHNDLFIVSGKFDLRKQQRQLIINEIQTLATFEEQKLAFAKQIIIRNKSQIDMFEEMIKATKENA
pIC50: −log10 of the molar value.

Which pIC50 value belongs to COC[C@@H]1[C@@H](O)[C@@H]2[C@H]3C=C[C@@H]4[C@@H](COC)C(=O)O[C@H]([C@H](O)COC)[C@H](C)/C=C(\C)[C@@]24O[C@H]3[C@@H]1OC(=O)c1cc(C)c[nH]1 ? 5.77 to 8.77

Reported pIC50, compound COC[C@@H]1[C@@H](O)[C@@H]2[C@H]3C=C[C@@H]4[C@@H](COC)C(=O)O[C@H]([C@H](O)COC)[C@H](C)/C=C(\C)[C@@]24O[C@H]3[C@@H]1OC(=O)c1ccc[nH]1 : ____ 5.76 to 8.76

What measured pIC50 goes with COC[C@H]1[C@@H](O)[C@@H]2O[C@@]34/C(C)=C/[C@@H](C)[C@@H]([C@H](O)COC)OC(=O)[C@H](COC)[C@H]3C=C[C@@H]2[C@H]4[C@@H]1O [Branimycin, reference compound] ? 5.68 to 8.68

I am curious: what pIC50 value has been reported for COC[C@@H]1[C@@H](O)[C@@H]2[C@H]3C=C[C@@H]4[C@@H](COC)C(=O)O[C@H]([C@H](O)COC)[C@H](C)/C=C(\C)[C@@]24O[C@H]3[C@@H]1OC(=O)c1ccoc1C ? 4.77 to 5.77

For the compound COC[C@@H]1[C@@H](O)[C@@H]2[C@H]3C=C[C@@H]4[C@@H](COC)C(=O)O[C@H]([C@H](O)COC)[C@H](C)/C=C(\C)[C@@]24O[C@H]3[C@@H]1OC(=O)c1cnco1 , what pIC50 is on record? 4.76 to 5.76

Look up pIC50: COC[C@@H]1[C@@H](O)[C@@H]2[C@H]3C=C[C@@H]4[C@@H](COC)C(=O)O[C@H]([C@H](O)COC)[C@H](C)/C=C(\C)[C@@]24O[C@H]3[C@@H]1OC(=O)c1cc(Br)c[nH]1 5.82 to 8.82

pIC50 lookup needed for COCC(=O)[C@H]1OC(=O)[C@H](COC)[C@H]2C=C[C@H]3[C@H]4O[C@]2(/C(C)=C/[C@H]1C)[C@@H]3[C@H](O)[C@@H](COC)[C@H]4OC(=O)c1ccc[nH]1 , thanks. 5.76 to 8.76

Recorded pIC50 for COC[C@@H]1[C@@H](O)[C@@H]2[C@H]3C=C[C@@H]4C[C@H](O)C(=O)O[C@H]([C@H](O)COC)[C@H](C)/C=C(\C)[C@@]24O[C@H]3[C@@H]1OC(=O)c1ccc[nH]1 [Nargenicin B1, reference compound] , please? 5.75 to 8.75

---

For each entry below, report its MIC value.
system: E. coli Ec50 efflux pump KO; assay: microbe, parasite or virus in culture; format: cell-based; settings: Escherichia coli, read-out: MIC Ec50 efflux pump KO
Hi! Could you send only the number? It should be in µg/mL, unit omitted.

# query: MIC of entry COCC(=NO)[C@H]1OC(=O)[C@H](COC)[C@H]2C=C[C@H]3[C@H]4O[C@]2(/C(C)=C/[C@H]1C)[C@@H]3[C@H](O)[C@@H](COC)[C@H]4OC(=O)c1ccc[nH]1 0.5

// MIC lookup, key: COC[C@@H](O)[C@H]1OC(=O)[C@H](COC)[C@H]2C=C[C@H]3[C@H]4O[C@]2(/C(C)=C/[C@H]1C)[C@@H]3[C@H](O)[C@@H](C)[C@H]4OC(=O)c1ccc[nH]1 8

---

For each of the molecules below, state its MIC.
tested on: H. influenza Hi47 clinical strain, Ampicillin Resistant; experiment: organism not typed; assay type: cell-based; conditions: read-out: MIC Hi47

Recorded MIC of COCC(=NOC(C)=O)[C@H]1OC(=O)[C@H](COC)[C@H]2C=C[C@H]3[C@H]4O[C@]2(/C(C)=C/[C@H]1C)[C@@H]3[C@H](O)[C@@H](COC)[C@H]4OC(=O)c1cc(Cl)c[nH]1 , please. > 64 µg/mL

Recorded MIC of COC[C@@H]1[C@@H](O)[C@@H]2[C@H]3C=C[C@@H]4[C@@H](COC)C(=O)O[C@H]([C@H](O)COC)[C@H](C)/C=C(\C)[C@@]24O[C@H]3[C@@H]1OC(=O)c1cc(F)c(F)[nH]1 , please. > 64 µg/mL

Give the measured MIC of COC[C@@H]1[C@@H](O)[C@@H]2[C@H]3C=C[C@@H]4[C@@H](COC)C(=O)O[C@H]([C@H](O)COC)[C@H](C)/C=C(\C)[C@@]24O[C@H]3[C@@H]1OC(=O)c1cnco1 . > 64 µg/mL

Can you look up the measured MIC of COCC(=O)[C@H]1OC(=O)[C@H](COC)[C@H]2C=C[C@H]3[C@H]4O[C@]2(/C(C)=C/[C@H]1C)[C@@H]3[C@H](O)[C@@H](COC)[C@H]4OC(=O)c1ccc[nH]1 for me? > 64 µg/mL

Would you mind telling me what MIC value was observed for COCC(=NO)[C@H]1OC(=O)[C@H](COC)[C@H]2C=C[C@H]3[C@H]4O[C@]2(/C(C)=C/[C@H]1C)[C@@H]3[C@H](O)[C@@H](COC)[C@H]4OC(=O)c1cc(F)c[nH]1 ? > 64 µg/mL

Which MIC value is on record for COC[C@@H]1[C@@H](O)[C@@H]2[C@H]3C=C[C@@H]4[C@@H](COC)C(=O)O[C@H]([C@H](O)COC)[C@H](C)/C=C(\C)[C@@]24O[C@H]3[C@@H]1OC(=O)c1cc(Br)c(Br)[nH]1 ? 16 µg/mL

Requested read-out: MIC. Entry: COC[C@H]1[C@@H](O)[C@@H]2O[C@@]34/C(C)=C/[C@@H](C)[C@@H]([C@H](O)COC)OC(=O)[C@H](COC)[C@H]3CC[C@@H]2[C@H]4[C@@H]1O [Compound 15, 4,5-Dihydro-branimycin] > 64 µg/mL

What value of MIC has been recorded for this entry: COC[C@@H]1[C@@H](O)[C@@H]2[C@H]3C=C[C@@H]4[C@@H](COC)C(=O)O[C@H]([C@H](O)COC)[C@H](C)/C=C(\C)[C@@]24O[C@H]3[C@@H]1OC(=O)c1cc(Br)c[nH]1 > 64 µg/mL

Sample COCC(=NO)[C@H]1OC(=O)[C@H](COC)[C@H]2C=C[C@H]3[C@H]4O[C@]2(/C(C)=C/[C@H]1C)[C@@H]3[C@H](O)[C@@H](COC)[C@H]4OC(=O)c1cc(Cl)c[nH]1 — what was its MIC? > 64 µg/mL

Param item = COC[C@@H]1[C@@H](O)[C@@H]2[C@H]3C=C[C@@H]4[C@@H](COC)C(=O)O[C@H]([C@H](O)COC)[C@H](C)/C=C(\C)[C@@]24O[C@H]3[C@@H]1OC(=O)c1cc(Cl)c(Cl)[nH]1 ; retrieve measured MIC. 32 µg/mL

---

biological target: UniProtKB Q6GG04; assay: biochemical
pIC50: −log10 of the molar value.
RECORDED ENDPOINT: pIC50

Find pIC50 (UniProtKB Q6GG04) for the entry COC/C(=N\OC)[C@H]1OC(=O)[C@H](COC)[C@H]2C=C[C@H]3[C@H]4O[C@]2(/C(C)=C/[C@H]1C)[C@@H]3[C@H](O)[C@@H](COC)[C@H]4OC(=O)c1ccc[nH]1 5.78 to 8.78

For the record COC[C@@H]1[C@@H](O)[C@@H]2[C@H]3C=C[C@@H]4[C@@H](COC)C(=O)O[C@H]([C@H](O)COC)[C@H](C)/C=C(\C)[C@@]24O[C@H]3[C@@H]1OC(=O)c1cc[nH]n1 , what value of pIC50 is listed for UniProtKB Q6GG04? 5.76 to 8.76

# value lookup — system UniProtKB Q6GG04, readout pIC50, item COC[C@@H]1[C@@H](O)[C@@H]2[C@H]3C=C[C@@H]4[C@@H](COC)C(=O)O[C@H]([C@H](O)COC)[C@H](C)/C=C(\C)[C@@]24O[C@H]3[C@@H]1OC(=O)c1ccc(C)[nH]1 5.77 to 8.77

# returns recorded pIC50 (system: UniProtKB Q6GG04) for COC[C@@H](O)[C@H]1OC(=O)[C@H](COC)[C@H]2C=C[C@H]3[C@H]4O[C@]2(/C(C)=C/[C@H]1C)[C@@H]3[C@H](O)[C@@H](C)[C@H]4O 4.66 to 5.66
